measurement_target: EGFR del19/C797S (Homo sapiens, UniProt P00533, C797S/DEL746-750)
Sequence (P00533 with tags, fused parts or gaps DEL746-750/C797S): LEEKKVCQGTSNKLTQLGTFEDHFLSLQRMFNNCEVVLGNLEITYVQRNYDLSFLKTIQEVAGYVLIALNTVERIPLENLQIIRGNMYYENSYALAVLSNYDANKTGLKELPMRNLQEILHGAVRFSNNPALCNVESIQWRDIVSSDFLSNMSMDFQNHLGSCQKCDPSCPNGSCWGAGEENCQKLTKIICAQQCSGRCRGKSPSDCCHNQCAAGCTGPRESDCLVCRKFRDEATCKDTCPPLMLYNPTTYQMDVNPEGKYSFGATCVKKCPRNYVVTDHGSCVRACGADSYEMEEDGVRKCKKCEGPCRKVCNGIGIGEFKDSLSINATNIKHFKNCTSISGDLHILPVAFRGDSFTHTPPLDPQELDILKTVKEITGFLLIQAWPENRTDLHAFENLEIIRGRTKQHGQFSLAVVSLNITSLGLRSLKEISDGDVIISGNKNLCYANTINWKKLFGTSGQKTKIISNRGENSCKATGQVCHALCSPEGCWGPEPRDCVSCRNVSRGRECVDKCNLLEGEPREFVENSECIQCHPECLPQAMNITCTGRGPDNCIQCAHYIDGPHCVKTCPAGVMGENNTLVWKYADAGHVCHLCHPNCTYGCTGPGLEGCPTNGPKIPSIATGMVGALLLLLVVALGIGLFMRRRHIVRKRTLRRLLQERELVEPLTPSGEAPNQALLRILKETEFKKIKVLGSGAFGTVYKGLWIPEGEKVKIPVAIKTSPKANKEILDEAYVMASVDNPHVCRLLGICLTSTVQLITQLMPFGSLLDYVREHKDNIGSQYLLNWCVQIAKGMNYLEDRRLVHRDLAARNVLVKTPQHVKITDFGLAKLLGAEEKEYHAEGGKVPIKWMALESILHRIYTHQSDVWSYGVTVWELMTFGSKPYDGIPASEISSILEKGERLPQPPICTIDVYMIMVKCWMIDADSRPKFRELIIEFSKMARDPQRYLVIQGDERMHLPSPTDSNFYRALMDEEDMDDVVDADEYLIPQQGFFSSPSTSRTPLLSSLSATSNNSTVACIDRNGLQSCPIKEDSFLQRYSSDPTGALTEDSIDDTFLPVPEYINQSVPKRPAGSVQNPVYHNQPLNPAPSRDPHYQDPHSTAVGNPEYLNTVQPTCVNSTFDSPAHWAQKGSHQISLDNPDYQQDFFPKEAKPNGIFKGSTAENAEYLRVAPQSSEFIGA
measurement_notes: Biochemical EGFR kinase assay (Lance Ultra TR-FRET), double mutant del19/C797S
experimental_parameters: Km ATP; read-out: IC50 del19/C797S (nM) Km ATP
quantity_measured: IC50 (nM)

{"molecule": "CN(C)Cc1ccc(-c2cnc(Nc3ccnc(-c4cnn(S(=O)(=O)C5CC5)c4)n3)cc2N[C@H]2CC[C@@H](C(C)(C)O)CC2)nc1 [Example 26]", "measurement_target": "EGFR del19/C797S (Homo sapiens, UniProt P00533, C797S/DEL746-750)", "test_result": 0.2}
{"molecule": "Cc1ccnc(-c2cnc(Nc3ccnc(-c4cnn(S(=O)(=O)C5CC5)c4)n3)cc2N[C@H]2CC[C@@](C)(O)CC2)c1 [Example 12]", "measurement_target": "EGFR del19/C797S (Homo sapiens, UniProt P00533, C797S/DEL746-750)", "test_result": 0.4}

[1] CC(C)(O)c1ccc(-c2cnc(Nc3ccnc(-c4cnn(S(=O)(=O)C5CC5)c4)n3)cc2N[C@H]2CC[C@@](C)(O)CC2)nn1 [Example 86]
[2] C[C@]1(O)CC[C@@H](Nc2cc(Nc3ccnc(-c4cnn(S(=O)(=O)C5CC5)c4)n3)ncc2-c2ccc(F)cn2)CC1 [Example 6]
[3] O=S(=O)(C1CC1)n1cc(-c2nccc(Nc3cc(N[C@H]4CC[C@@H](F)CC4)c(-c4ccc(N5CCOCC5)cn4)cn3)n2)cn1 [Example 123]
[4] CN1CCN(c2ccnc(-c3cnc(Nc4ccnc(-c5cnn(S(=O)(=O)C6CC6)c5)n4)cc3N[C@H]3CC[C@@](C)(O)CC3)c2)CC1 [Example 58]
INPUT: Task for the reader: rank each entry by its IC50, from the minimum upward. Please respond with the labels ordered as the question requires.
OUTPUT: 2, 1, 4, 3
(2: 0.2 nM, 1: 0.3 nM, 4: 8 nM, 3: 28.6 nM)
